meta.source: ChEMBL document CHEMBL1134050

For each record, write down the corresponding pKi.
# Target Or System: 5-hydroxytryptamine receptor 2C (Homo sapiens)
# Sequence (P28335 whole entry): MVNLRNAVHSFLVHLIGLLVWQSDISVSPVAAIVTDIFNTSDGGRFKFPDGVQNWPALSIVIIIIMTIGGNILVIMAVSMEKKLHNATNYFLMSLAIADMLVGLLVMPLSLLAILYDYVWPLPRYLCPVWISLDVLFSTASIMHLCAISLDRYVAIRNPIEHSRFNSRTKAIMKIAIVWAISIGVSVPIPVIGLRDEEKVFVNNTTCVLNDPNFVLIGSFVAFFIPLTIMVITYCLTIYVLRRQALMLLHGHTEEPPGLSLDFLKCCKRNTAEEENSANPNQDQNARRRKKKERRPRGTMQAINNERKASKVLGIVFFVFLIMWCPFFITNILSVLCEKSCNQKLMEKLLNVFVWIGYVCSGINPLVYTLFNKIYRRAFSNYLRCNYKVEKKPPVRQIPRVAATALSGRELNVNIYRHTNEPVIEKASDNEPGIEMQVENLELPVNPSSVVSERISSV
# Assay Summary: Compound was evaluated for binding affinity against human cloned 5-hydroxytryptamine 2C receptor in HEK 293 cells using [3H]mesulergine as the radioligand
Give bare numbers, as −log10 of the molar value.

Please give pKi, item by item, for the list that follows.
1. COc1ccc(S(=O)(=O)N2CCc3ccc(I)cc32)cc1N1CCNCC1
2. COc1ccc(S(=O)(=O)Nc2cc(Cl)cc(Cl)c2Cl)cc1N1CCNCC1

result:
[6.20, 6.00]

* * *

# Target Or System: 5-hydroxytryptamine receptor 2A (Homo sapiens)
# Sequence (P28223 whole entry): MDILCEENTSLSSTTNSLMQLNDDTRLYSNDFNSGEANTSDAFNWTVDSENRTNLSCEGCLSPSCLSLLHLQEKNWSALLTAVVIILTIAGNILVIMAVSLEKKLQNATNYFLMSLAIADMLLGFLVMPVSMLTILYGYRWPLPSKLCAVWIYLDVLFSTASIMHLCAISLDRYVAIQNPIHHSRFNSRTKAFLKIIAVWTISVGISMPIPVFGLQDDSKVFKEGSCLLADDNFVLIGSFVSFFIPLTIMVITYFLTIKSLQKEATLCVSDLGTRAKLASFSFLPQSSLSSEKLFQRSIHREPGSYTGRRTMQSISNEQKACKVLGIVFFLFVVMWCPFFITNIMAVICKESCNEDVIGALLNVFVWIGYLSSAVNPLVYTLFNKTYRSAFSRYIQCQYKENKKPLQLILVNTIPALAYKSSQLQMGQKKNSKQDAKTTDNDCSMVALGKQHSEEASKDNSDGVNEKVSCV
# Assay Summary: Compound was evaluated for binding affinity against human cloned 5-hydroxytryptamine 2A receptor in HEK 293 cells using [3H]ketanserin as the radioligand
pKi: −log10 of the molar value.
Endpoint: pKi

List the reported pKi of each molecule below.
1. COc1ccc(S(=O)(=O)Nc2cc(Br)ccc2Br)cc1N1CCNCC1
2. COc1ccc(S(=O)(=O)N2CCc3ccc(I)cc32)cc1N1CCNCC1
3. COc1ccc(S(=O)(=O)Nc2cc(Cl)cc(Cl)c2Cl)cc1N1CCNCC1
4. COc1ccc(S(=O)(=O)Nc2cc(Br)cc(F)c2Br)cc1N1CCNCC1

result:
["< 5.00", "< 5.40", "< 5.00", "< 5.10"]
